Tested on: Pseudomonas aeruginosa
Assay: Antibacterial activity against Pseudomonas aeruginosa at 100 ug/ml by cup-plate method
Assay type: functional
Settings: read-out: IZ
Recorded zone of inhibition at 100 µg/mL by entry

COMPOUND STRUCTURE	zone of inhibition at 100 µg/mL [mm]
O=C(NC(=S)Nc1cccc(Cl)c1)c1cn(CCO)c2c(cc(Cl)c3ncccc32)c1=O	9
Cc1ccc(C)c(NC(=O)c2cn(CCO)c3c(cc(O)c4ncccc43)c2=O)c1	8
O=C(NC(=S)Nc1ccc([N+](=O)[O-])cc1)c1cn(CCO)c2c(cc(O)c3ncccc32)c1=O	10
Cc1cccc(NC(=O)c2cn(CCO)c3c(cc(Cl)c4ncccc43)c2=O)c1	10
O=C(Nc1ccccc1[N+](=O)[O-])c1cn(CCO)c2c(cc(O)c3ncccc32)c1=O	9
O=C(Nc1ccc(S(=O)(=O)Nc2ccc(Cl)cc2)cc1)c1cn(CCO)c2c(cc(Cl)c3ncccc32)c1=O	0
O=C(Nc1ccc(S(=O)(=O)Nc2cccc([N+](=O)[O-])c2)cc1)c1cn(CCO)c2c(cc(O)c3ncccc32)c1=O	7
Cc1ccccc1NC(=S)NC(=O)c1cn(CCO)c2c(cc(O)c3ncccc32)c1=O	0
COc1ccc(NC(=O)c2cn(CCO)c3c(cc(Cl)c4ncccc43)c2=O)cc1	6
O=C(NC(=S)Nc1ccccc1[N+](=O)[O-])c1cn(CCO)c2c(cc(O)c3ncccc32)c1=O	4
COc1ccc(NS(=O)(=O)c2ccc(NC(=O)c3cn(CCO)c4c(cc(O)c5ncccc54)c3=O)cc2)cc1	8
Cc1cccc(NC(=O)c2cn(CCO)c3c(cc(O)c4ncccc43)c2=O)c1	6
O=C(Nc1cccc([N+](=O)[O-])c1)c1cn(CCO)c2c(cc(O)c3ncccc32)c1=O	10
Cc1ccc(C)c(NS(=O)(=O)c2ccc(NC(=O)c3cn(CCO)c4c(cc(Cl)c5ncccc54)c3=O)cc2)c1	10
COc1ccc(NC(=O)c2cn(CCO)c3c(cc(O)c4ncccc43)c2=O)cc1	10
O=C(NC(=S)Nc1cccc(Cl)c1)c1cn(CCO)c2c(cc(O)c3ncccc32)c1=O	9
Cc1ccc(NC(=S)NC(=O)c2cn(CCO)c3c(cc(Cl)c4ncccc43)c2=O)cc1	0
O=C(Nc1cccc(Cl)c1)c1cn(CCO)c2c(cc(Cl)c3ncccc32)c1=O	7
O=C(Nc1cccc(Cl)c1)c1cn(CCO)c2c(cc(O)c3ncccc32)c1=O	4

---

The reader will find reported zone of inhibition at 100 µg/mL values listed item by item below.
System: Bacillus subtilis
Assay: Antibacterial activity against Bacillus subtilis at 100 ug/ml by cup plate method
Type: functional
Conditions: read-out: IZ

COMPOUND STRUCTURE	READOUT UNIT	zone of inhibition at 100 µg/mL
COc1ccc(NS(=O)(=O)c2ccc(NC(=O)c3cn(CCO)c4c(cc(Cl)c5ncccc54)c3=O)cc2)cc1	mm	10
O=C(Nc1cccc(Cl)c1)c1cn(CCO)c2c(cc(Cl)c3ncccc32)c1=O	mm	9
COc1ccccc1NC(=O)c1cn(CCO)c2c(cc(O)c3ncccc32)c1=O	mm	8
Cc1ccc(NC(=S)NC(=O)c2cn(CCO)c3c(cc(Cl)c4ncccc43)c2=O)cc1	mm	6
Cc1ccccc1NC(=O)c1cn(CCO)c2c(cc(Cl)c3ncccc32)c1=O	mm	5
O=C(Nc1ccc(S(=O)(=O)Nc2ccc(Cl)cc2)cc1)c1cn(CCO)c2c(cc(Cl)c3ncccc32)c1=O	mm	7
O=C(NC(=S)Nc1cccc([N+](=O)[O-])c1)c1cn(CCO)c2c(cc(Cl)c3ncccc32)c1=O	mm	6
Cc1cccc(NC(=S)NC(=O)c2cn(CCO)c3c(cc(O)c4ncccc43)c2=O)c1	mm	8
Cc1ccc(NC(=O)c2cn(CCO)c3c(cc(O)c4ncccc43)c2=O)cc1	mm	8
Cc1cccc(NS(=O)(=O)c2ccc(NC(=O)c3cn(CCO)c4c(cc(O)c5ncccc54)c3=O)cc2)c1	mm	12
Cc1ccc(NS(=O)(=O)c2ccc(NC(=O)c3cn(CCO)c4c(cc(O)c5ncccc54)c3=O)cc2)cc1	mm	6
COc1ccc(NC(=S)NC(=O)c2cn(CCO)c3c(cc(Cl)c4ncccc43)c2=O)cc1	mm	9
N#Cc1cc([N+](=O)[O-])ccc1NS(=O)(=O)c1ccc(NC(=O)c2cn(CCO)c3c(cc(O)c4ncccc43)c2=O)cc1	mm	6
COc1ccccc1NC(=O)c1cn(CCO)c2c(cc(Cl)c3ncccc32)c1=O	mm	10
Cc1ccc(C)c(NS(=O)(=O)c2ccc(NC(=O)c3cn(CCO)c4c(cc(Cl)c5ncccc54)c3=O)cc2)c1	mm	9
COc1ccc(NC(=O)c2cn(CCO)c3c(cc(O)c4ncccc43)c2=O)cc1	mm	12
Cc1ccccc1NC(=S)NC(=O)c1cn(CCO)c2c(cc(O)c3ncccc32)c1=O	mm	7
O=C(Nc1ccc(S(=O)(=O)Nc2ccc([N+](=O)[O-])cc2)cc1)c1cn(CCO)c2c(cc(O)c3ncccc32)c1=O	mm	11
O=C(NC(=S)Nc1cccc(Cl)c1)c1cn(CCO)c2c(cc(Cl)c3ncccc32)c1=O	mm	10
N#Cc1cc([N+](=O)[O-])ccc1NS(=O)(=O)c1ccc(NC(=O)c2cn(CCO)c3c(cc(Cl)c4ncccc43)c2=O)cc1	mm	9
O=C(NC(=S)Nc1cccc(Cl)c1)c1cn(CCO)c2c(cc(O)c3ncccc32)c1=O	mm	10
O=C(Nc1ccc(S(=O)(=O)Nc2ccccc2)cc1)c1cn(CCO)c2c(cc(O)c3ncccc32)c1=O	mm	8
Cc1ccc(C)c(NC(=O)c2cn(CCO)c3c(cc(Cl)c4ncccc43)c2=O)c1	mm	9
Cc1ccccc1NS(=O)(=O)c1ccc(NC(=O)c2cn(CCO)c3c(cc(O)c4ncccc43)c2=O)cc1	mm	6
COc1ccc(NC(=O)c2cn(CCO)c3c(cc(Cl)c4ncccc43)c2=O)cc1	mm	6
O=C(Nc1ccc(S(=O)(=O)Nc2cccc(Cl)c2)cc1)c1cn(CCO)c2c(cc(Cl)c3ncccc32)c1=O	mm	9
COc1ccc(NC(=S)NC(=O)c2cn(CCO)c3c(cc(O)c4ncccc43)c2=O)cc1	mm	6
O=C(Nc1ccc(S(=O)(=O)Nc2cccc([N+](=O)[O-])c2)cc1)c1cn(CCO)c2c(cc(O)c3ncccc32)c1=O	mm	8
O=C(Nc1ccc(S(=O)(=O)Nc2cccc([N+](=O)[O-])c2)cc1)c1cn(CCO)c2c(cc(Cl)c3ncccc32)c1=O	mm	8
O=C(Nc1cccc(Cl)c1)c1cn(CCO)c2c(cc(O)c3ncccc32)c1=O	mm	6
O=C(Nc1ccccc1[N+](=O)[O-])c1cn(CCO)c2c(cc(Cl)c3ncccc32)c1=O	mm	10
O=C(NC(=S)Nc1cccc([N+](=O)[O-])c1)c1cn(CCO)c2c(cc(O)c3ncccc32)c1=O	mm	7
Cc1cccc(NC(=O)c2cn(CCO)c3c(cc(Cl)c4ncccc43)c2=O)c1	mm	9
Cc1ccccc1NC(=S)NC(=O)c1cn(CCO)c2c(cc(Cl)c3ncccc32)c1=O	mm	8
O=C(NC(=S)Nc1cccc(O)c1)c1cn(CCO)c2c(cc(Cl)c3ncccc32)c1=O	mm	9
